# assay-notes: small-molecule microarray binders of probe aCHRDL2, primary screen, biochemical, biotinylated probe, 635/667 nm fluorescence (AID 1100)
# condition: higher = more signal
Listed below: composite z-score values for each entry.
Respond numerically, and do not add a unit to the figure.

// known answers, use as guide
- compound: "Cc1ccc(S[C@]2(C(=O)NCCN3CCOCC3)CC(=O)N(Cc3ccccc3)[C@@H]2c2ccc(CO)cc2I)cc1"
  composite z-score: 1.11
- compound: "COc1ccc([Si](C)(C)[C@@H]2[C@@H](CC(=O)N3Cc4ccccc4C[C@H]3CO)O[C@]3(C(=O)N(C)c4c(Br)cc(C)cc43)[C@H]2C)cc1"
  composite z-score: -0.311
- compound: "CC(C)[C@@H](CO)NC(=O)[C@H]1[C@@H](c2ccccc2)N(c2ccccc2)O[C@@H]1C"
  composite z-score: -0.343

Exercise: Entry `C[N+](C)(C)CCCC[C@@H]1NC(=O)[C@@H]2C[C@H](C(=O)NCCCCCN)[C@H](c3cccc(OCCO)c3)N2C1=O` has what composite z-score?
Key: 0.356

Exercise: Check CCN(CC)c1ccc(N2CC=CC34O[C@@H]5/C=C\CCC(C)OC(=O)C5[C@H]3C(=O)N(C(CO)C(C)C)[C@@H]4C2=O)cc1 (some centres not stated) too.
Key: 0.0959

Exercise: And then `C=CCNC(=O)[C@@H]1[C@H]2C(=O)O[C@H](c3ccccc3)[C@H](c3ccccc3)N2[C@H](c2ccccc2OCCO)[C@@]12C(=O)N(C(=O)OCCOC)c1ccc(C#CCNC(N)=O)cc12` , what is it?
Key: 0.447

Exercise: Follow-up entry: `O=C(NCc1ccc(F)cc1)[C@H]1C[C@H]2C(=O)N[C@@H](Cc3ccccc3)C(=O)N2[C@H]1c1ccc(O)cc1`
Key: 0.105
